# experimentalSystem: BTK protein (Homo sapiens, UniProt Q06187)
# Construct: endogenous in cells; host or cells: TMD-8 cells
# Sequence (Q06187 whole entry): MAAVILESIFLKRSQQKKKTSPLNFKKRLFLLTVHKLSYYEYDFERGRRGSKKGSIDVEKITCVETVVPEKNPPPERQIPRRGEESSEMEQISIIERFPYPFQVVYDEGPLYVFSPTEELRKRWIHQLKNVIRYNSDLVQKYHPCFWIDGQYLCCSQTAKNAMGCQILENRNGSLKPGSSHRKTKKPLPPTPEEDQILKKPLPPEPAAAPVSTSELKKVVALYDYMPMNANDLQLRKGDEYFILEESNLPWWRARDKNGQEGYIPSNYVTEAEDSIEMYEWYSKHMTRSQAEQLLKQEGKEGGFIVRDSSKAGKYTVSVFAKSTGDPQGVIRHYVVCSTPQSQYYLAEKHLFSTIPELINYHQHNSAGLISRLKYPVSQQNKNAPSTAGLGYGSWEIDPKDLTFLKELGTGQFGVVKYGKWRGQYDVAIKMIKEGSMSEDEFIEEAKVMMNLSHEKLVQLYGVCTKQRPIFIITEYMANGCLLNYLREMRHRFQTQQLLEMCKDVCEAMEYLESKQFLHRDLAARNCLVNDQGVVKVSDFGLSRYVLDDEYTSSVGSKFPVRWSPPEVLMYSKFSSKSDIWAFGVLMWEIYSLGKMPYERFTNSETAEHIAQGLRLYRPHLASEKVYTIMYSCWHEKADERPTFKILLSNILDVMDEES
# testDescription: Measurement of BTK protein degradation ability in TMD-8 cells (Western blotting)
# Type: cell-based
# appliedConditions: compound 10 nM, harvested after 24 hours
recordedMetric: BTK degradation (%) 10 nM
Numbers only, in %.

As a guide, the following entries are already answered.
molecule: Cc1cc(-c2ccnc(Nc3ccc(N4CCN(CC5CCN(c6cccc(N7CCC(=O)NC7=O)c6)CC5)CC4)cc3)n2)ccc1CNC(=O)c1cnn(C(C)(C)C)c1 [Example 81]
BTK degradation (%) 10 nM: 97.0

molecule: Cc1cc(-c2ccnc(Nc3ccc(N4CCN(CC5CCN(C(=O)c6cccc(NC7CCC(=O)NC7=O)c6)CC5)CC4)cc3)n2)ccc1CNC(=O)c1cn(C(C)(C)C)nn1 (stereo not drawn) [Example 97]
BTK degradation (%) 10 nM: 94.0

molecule: Cc1c(NC(=O)N2CC(OC(C)C)C2)cc(F)cc1-c1ccnc(Nc2ccc(N3CCN(CC4CN(c5ccc6c(c5)C(=O)N(C5CCC(=O)NC5=O)C6=O)C4)CC3)cc2)n1 (stereo not drawn) [Example 27]
BTK degradation (%) 10 nM: 71.5

Return reported BTK degradation (%) 10 nM values for all items listed beneath this line.
1. Cc1cc(-c2ccnc(Nc3ccc(N4CCN(CC5CN(c6ccc7c(c6)C(=O)N(C6CCC(=O)NC6=O)C7=O)C5)CC4)cc3)n2)ccc1CNC(=O)N1CC(OC(C)C)C1 (stereo not drawn) [Example 11]
2. Cc1cc(-c2ccnc(Nc3ccc(N4CCC(CN5CCN(c6ccc7c(c6)C(=O)N(C6CCC(=O)NC6=O)C7=O)CC5)CC4)cc3)n2)ccc1CNC(=O)N1CC(OC(C)C)C1 (stereo not drawn) [Example 111]
3. Cc1cc(-c2ccnc(Nc3ccc(N4CCN(CC5CCN(C(=O)c6cccc(OC7CCC(=O)NC7=O)c6)CC5)CC4)cc3)n2)ccc1CNC(=O)N1CC(OC(C)C)C1 (stereo not drawn) [Example 102]
4. Cc1cc(-c2ccnc(Nc3ccc(N4CCN(CC5CCN(c6ccc(NC7CCC(=O)NC7=O)cc6)CC5)CC4)cc3)n2)ccc1CNC(=O)N1CC(OC(C)C)C1 (stereo not drawn) [Example 55]

a:
[93.5, 93.5, 82.5, 94.7]

Return reported BTK degradation (%) 10 nM values for all items listed beneath this line.
1. Cc1cc(-c2ccnc(Nc3ccc(N4CCN(CC5CCN(c6ccc7c(c6)C(=O)N(C6CCC(=O)NC6=O)C7=O)CC5)CC4)cc3)n2)ccc1CNC(=O)N1CC(OC(C)C)C1 (stereo not drawn) [Example 7]
2. Cc1cc(-c2ccnc(Nc3ccc4c(c3)CN(CC3CCN(c5ccc6c(c5)C(=O)N(C5CCC(=O)NC5=O)C6=O)CC3)CC4)n2)ccc1CNC(=O)N1CC(OC(C)C)C1 (stereo not drawn) [Example 1]

a:
1. 90
2. 92

Return reported BTK degradation (%) 10 nM values for all items listed beneath this line.
1. Cc1cc(-c2ccnc(Nc3ccc(C4CCN(CC5CN(c6ccc7c(c6)C(=O)N(C6CCC(=O)NC6=O)C7=O)C5)CC4)cc3)n2)ccc1CNC(=O)c1cn(C(C)(C)C)nn1 (stereo not drawn) [Example 46]
2. Cc1cc(-c2ccnc(Nc3ccc(N4CCN(CC5CCN(c6cccc(NC7CCC(=O)NC7=O)c6)CC5)CC4)cc3)n2)ccc1CNC(=O)N1CC(OC(C)C)C1 (stereo not drawn) [Example 54]
3. Cc1cc(-c2ccnc(Nc3ccc(C4CCN(CC5CN(c6ccc7c(c6)C(=O)N(C6CCC(=O)NC6=O)C7=O)C5)CC4)nc3)n2)ccc1CNC(=O)N1CC(OC(C)C)C1 (stereo not drawn) [Example 20]
4. Cc1cc(-c2ccnc(Nc3ccc(CN4CCC(CN5CCC(c6cccc(N7CCC(=O)NC7=O)c6)CC5)CC4)cc3)n2)ccc1CNC(=O)c1cn(C(C)(C)C)nn1 [Example 140]
5. Cc1cc(-c2ccnc(Nc3ccc(C4CCN(CC5CCN(c6ccc(NC7CCC(=O)NC7=O)cc6)CC5)CC4)cc3)n2)ccc1CNC(=O)N1CC(OC(C)C)C1 (stereo not drawn) [Example 56]

a:
91.0
95.0
92
10.5
91.3

Return reported BTK degradation (%) 10 nM values for all items listed beneath this line.
1. Cc1cc(-c2ccnc(Nc3ccc(N4CCC(CN5CCN(c6ccc(NC7CCC(=O)NC7=O)cn6)CC5)CC4)cc3)n2)ccc1CNC(=O)c1cnn(C(C)(C)C)c1 (stereo not drawn) [Example 131]
2. Cc1cc(-c2ccnc(Nc3ccc(C4CCN(CC5CN(c6ccc7c(c6)C(=O)N(C6CCC(=O)NC6=O)C7=O)C5)CC4)cc3)n2)ccc1CNC(=O)c1cnn(C(C)(C)C)c1 (stereo not drawn) [Example 45]
3. Cc1c(NC(=O)N2CC(OC(C)C)C2)cc(F)cc1-c1ccnc(Nc2ccc(N3CCN(CC4CCN(c5ccc6c(c5)C(=O)N(C5CCC(=O)NC5=O)C6=O)CC4)CC3)cc2)n1 (stereo not drawn) [Example 23]
4. Cc1cc(-c2ccnc(Nc3ccc4c(c3)CN(CC3CCN(c5ccc6c(c5)C(=O)N(C5CCC(=O)NC5=O)C6=O)CC3)CC4)n2)ccc1CNC(=O)c1cn(C(C)(C)C)nn1 (stereo not drawn) [Example 3]
5. Cc1cc(-c2ccnc(Nc3ccc(N4CCN(CC5CCN(c6ccc(OC7CCC(=O)NC7=O)cn6)CC5)CC4)cc3)n2)ccc1CNC(=O)N1CC(OC(C)C)C1 (stereo not drawn) [Example 50]
6. Cc1cc(-c2ccnc(Nc3ccc(C4CCN(CC5CCN(C(=O)c6cccc(NC7CCC(=O)NC7=O)c6)CC5)CC4)cc3)n2)ccc1CNC(=O)N1CC(OC(C)C)C1 (stereo not drawn) [Example 99]
7. Cc1cc(-c2ccnc(Nc3ccc(N4CCC(CN5CCN(c6ccc(NC7CCC(=O)NC7=O)cn6)CC5)CC4)cc3)n2)ccc1CNC(=O)c1cn(C(C)(C)C)nn1 (stereo not drawn) [Example 133]

a:
1: 96.0; 2: 89.5; 3: 72; 4: 84; 5: 82.0; 6: 92.0; 7: 96.5

Ref: patent US20250041429A1
